From: paper PMC5855875

Listing of recorded MIC (with polysorbate 80) by entry.
# Tested on: MRSA 3: MRSA DM21455 (eye)
# assayName: microbe, parasite or virus in culture
# conditionsUsed: MRSA 3; MHB containing polysorbate 80 (0.002%, v/v); 37 °C, 24 h
Bridge positions count the residues as written; N and C are the ends. Square brackets hold non-standard residues; d marks the D form. Peptide text beside a SMILES is read from it. d(aIle) = CC[C@H](C)[C@@H](N)C(=O)O; dNMeF = CN[C@H](Cc1ccccc1)C(=O)O
measuredEndpoint: MIC (with polysorbate 80)

>  <compound>
CC[C@H](C)[C@H](NC(=O)[C@@H](Cc1ccccc1)NC)C(=O)N[C@@H](CO)C(=O)N[C@H](CCC(N)=O)C(=O)N[C@@H](C(=O)N[C@H](C(=O)N[C@@H](CO)C(=O)N[C@H]1C(=O)N[C@@H](C)C(=O)N[C@@H](CC(C)C)C(=O)N[C@@H]([C@@H](C)CC)C(=O)O[C@H]1C)[C@@H](C)CC)[C@@H](C)CC [Compound 13, Leu10-teixobactin] (H-[dNMeF]IS[dQ][d(aIle)]IS[dT]ALI; ester 8-C)

>  <value>
≤ 0.0625 µg/mL

$$$$
>  <compound>
CC[C@H](C)[C@@H]1NC(=O)[C@H](C)NC(=O)[C@H](NC(=O)[C@H](CO)NC(=O)[C@@H](NC(=O)[C@H](NC(=O)[C@@H](CCC(N)=O)NC(=O)[C@H](CO)NC(=O)[C@@H](NC(=O)[C@@H](Cc2ccccc2)NC)[C@@H](C)CC)[C@@H](C)CC)[C@@H](C)CC)[C@H](C)OC(=O)[C@H]([C@@H](C)CC)NC1=O [Compound 12, Ile10-teixobactin] (H-[dNMeF]IS[dQ][d(aIle)]IS[dT]AII; ester 8-C)

>  <value>
≤ 0.0625 µg/mL

$$$$
